target.or.system: T1, human PTH1R on Saos-2 cells (endogenous) (human, UniProt Q03431 27-593)
T1 sequence (looked up): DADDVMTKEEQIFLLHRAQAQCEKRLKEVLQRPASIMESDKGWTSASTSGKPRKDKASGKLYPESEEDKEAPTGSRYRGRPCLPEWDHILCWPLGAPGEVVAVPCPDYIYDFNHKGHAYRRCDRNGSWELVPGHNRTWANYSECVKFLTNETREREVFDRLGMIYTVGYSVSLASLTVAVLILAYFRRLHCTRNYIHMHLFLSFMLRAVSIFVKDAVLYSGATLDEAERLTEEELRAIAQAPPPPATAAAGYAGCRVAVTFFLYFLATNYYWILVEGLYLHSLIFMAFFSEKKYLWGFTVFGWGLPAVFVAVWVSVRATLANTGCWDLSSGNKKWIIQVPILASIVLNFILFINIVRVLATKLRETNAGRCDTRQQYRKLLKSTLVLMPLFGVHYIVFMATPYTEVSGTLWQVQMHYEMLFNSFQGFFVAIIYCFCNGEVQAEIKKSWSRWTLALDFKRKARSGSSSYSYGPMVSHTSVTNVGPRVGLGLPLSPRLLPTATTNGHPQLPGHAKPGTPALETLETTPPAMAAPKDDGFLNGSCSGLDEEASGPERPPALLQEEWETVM
experiment.description: cell-based or functional assay
Criterion: % inhibition of cAMP accumulation at 1 µM PTHrP(1-34), 267 nM IgG meeting or surpassing 80%. Met: t. Not met: f.

Reference set (4 entries):
{"binder": "XPA.85.329 (antibody, V domains shown, IgG; also called Ab329; XPA.329) VH: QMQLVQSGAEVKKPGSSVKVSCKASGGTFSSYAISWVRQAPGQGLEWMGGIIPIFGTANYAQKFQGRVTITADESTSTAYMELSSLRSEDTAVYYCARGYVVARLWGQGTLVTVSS VL: DIVMTQTPLSLSVTPGQPASISCKSSQSLLHIDGLTYLYWYLQKPGQPPQLLIYEVSHRFSGVSDKFSGSGSGTDFTLTISRVEAEDVGVYYCMQSLHLPITFGQGTRLEIK", "label.class": "t"}
{"binder": "XPA.85.331 (antibody, V domains shown, Light-chain-shuffled variant of XPA.85.012) VH: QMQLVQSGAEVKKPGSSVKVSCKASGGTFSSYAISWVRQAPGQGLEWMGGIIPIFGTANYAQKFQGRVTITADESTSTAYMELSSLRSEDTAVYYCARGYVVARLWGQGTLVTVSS VL: DVVMTQSPLSLPVTPGEPASISCRSSQSLLHIDGFNYLQWYLQKPGQSPQLLVHLGSFRASGVPDRFSGSGSGTDFTLEISRVEAEDVGLYYCMQGLQTPPTFGPGTKVEIK", "label.class": "f"}
{"binder": "XPA.85.346 (antibody, V domains shown, Light-chain-shuffled variant of XPA.85.012) VH: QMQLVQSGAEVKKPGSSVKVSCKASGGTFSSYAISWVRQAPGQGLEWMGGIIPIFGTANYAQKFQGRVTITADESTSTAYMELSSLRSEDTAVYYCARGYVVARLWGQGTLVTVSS VL: DIVMTQTPLSLSVTPGQPASITCKSSQSLLHIDGKTYLYWFLQKPGQPPQLLIYEVSNRFSGVPDRFSGSGSGTDFTLKISRVEAEDVGLYYCMQSLHLPITFGQGTRLEIK", "label.class": "f"}
{"binder": "XPA.85.330 (antibody, V domains shown, IgG; also called Ab330) VH: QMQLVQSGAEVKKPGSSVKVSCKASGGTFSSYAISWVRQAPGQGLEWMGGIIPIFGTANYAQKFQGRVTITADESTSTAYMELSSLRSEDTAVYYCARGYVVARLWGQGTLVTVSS VL: DIVMTQTPLSLSVTPGQPASISCKSSQSLLHIDGNTYLYWYLQRPGQPPQLLIYEISNRFSGVPDRFSGSGSGTDFTLKISRVEAEDVGVYYCMQSLHFPITFGQGTRLEIK", "label.class": "t"}

Exercise: Reported % inhibition of cAMP accumulation at 1 µM PTHrP(1-34), 267 nM IgG at or above 80%? XPA.85.342 (antibody, V domains shown, Light-chain-shuffled variant of XPA.85.012) VH: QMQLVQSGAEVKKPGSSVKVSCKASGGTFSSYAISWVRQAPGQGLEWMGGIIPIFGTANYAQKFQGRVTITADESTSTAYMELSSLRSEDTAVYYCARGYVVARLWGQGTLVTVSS VL: ETTLTQSPTFMSASVGDRVTITCQASQDINNFLNWYQQKPGKAPKFLIYDASNLEKGVPSRFSGRGSGTEFTLTISSLQPEDIATYYCQQYRDFPLTFGQGTRLEIK
Solution: f
